- protocol-details: Phase 1 study, SAD cohorts: plasma pharmacokinetics
- Assay type: in vivo, human
- test-settings: both sexes, human, oral, Day 1, 12 mg, plasma, mean
measurement-type: AUC(0-inf) (ng·h/mL)
Give your result in ng·h/mL as a bare value.

Looking for the measured AUC(0-inf) of `N#Cc1cccc(C#N)c1-c1c(-c2cccc(-c3ccc(C(=O)NCC(=O)O)cc3Cl)c2)n(S(=O)(=O)c2ccc(C(F)F)cc2)c2ccc(F)cc12` , can you help? 17.1

====

- protocol-details: Phase 1 study, SAD cohorts: plasma pharmacokinetics
- Assay type: in vivo, human
- test-settings: both sexes, human, oral, Day 1, 2 mg, plasma, median
measurement-type: Tmax (h)
The answer is to be given in h; state only the numeric part.

Could you share which Tmax value was measured for N#Cc1cccc(C#N)c1-c1c(-c2cccc(-c3ccc(C(=O)NCC(=O)O)cc3Cl)c2)n(S(=O)(=O)c2ccc(C(F)F)cc2)c2ccc(F)cc12 [Compound 21/3] ? 3.75

====

- protocol-details: Short term HFD mouse model: plasma and liver exposure
- Assay type: in vivo
- test-settings: HFD mice, three oral doses of 10 mg/kg over two days, 4 h after final dose
measurement-type: plasma exposure 4 h

CC(=O)NS(=O)(=O)c1ccc(-c2cccc(-c3c(-c4c(C#N)cccc4C#N)c4cc(F)ccc4n3S(=O)(=O)c3ccc(C(F)F)cc3)c2)c(Cl)c1: C (100 nM to <300 nM)
N#Cc1cccc(C#N)c1-c1c(-c2cccc(-c3ccc(C(=O)O)cc3F)c2)n(S(=O)(=O)c2ccc(C(F)F)cc2)c2ccc(F)cc12: D (<100 nM)
N#Cc1cccc(C#N)c1-c1c(-c2cccc(-c3ccc(C(=O)O)cc3Cl)c2)n(S(=O)(=O)c2ccc(C(F)(F)F)nc2)c2ccc(F)cc12: D (<100 nM)
CN(CCS(=O)(=O)O)C(=O)c1ccc(-c2cccc(-c3c(-c4c(C#N)cccc4C#N)c4cc(F)ccc4n3S(=O)(=O)c3ccc(C(F)F)cc3)c2)c(Cl)c1: D (<100 nM)
N#Cc1cccc(C#N)c1-c1c(-c2cccc(-c3ccc(C(=O)O)cc3Cl)c2)n(S(=O)(=O)C2CCC(F)(F)CC2)c2ccc(F)cc12: D (<100 nM)

Fill blank: measured plasma exposure 4 h of the compound `N#Cc1cccc(C#N)c1-c1c(-c2cccc(-c3cc(F)c(C(=O)O)cc3Cl)c2)n(S(=O)(=O)c2ccc(C(F)F)cc2)c2ccc(F)cc12` is ____. D (<100 nM)

Likewise for `N#Cc1cccc(C#N)c1-c1c(-c2cccc(-c3c(F)cc(CC(=O)O)cc3F)c2)n(S(=O)(=O)c2ccc(C(F)F)cc2)c2ccc(F)cc12` ? D (<100 nM)

And for `N#Cc1cccc(C#N)c1-c1c(-c2cccc([C@H]3CC[C@H](C(=O)O)CC3)c2)n(S(=O)(=O)c2ccc(C(F)F)cc2)c2ccc(F)cc12` ? C (100 nM to <300 nM)

Another: `N#Cc1cccc(C#N)c1-c1c(-c2cccc(-c3ccc(C(=O)NCCS(=O)(=O)O)cc3Cl)c2)n(S(=O)(=O)c2ccc(C(F)F)cc2)c2ccc(F)cc12` D (<100 nM)

Then what about the compound `N#Cc1cccnc1-c1c(-c2cccc(-c3ccc(C(=O)O)cc3Cl)c2)n(S(=O)(=O)c2ccc(C(F)F)cc2)c2ccc(F)cc12` ? C (100 nM to <300 nM)

Query `CS(=O)(=O)NC(=O)c1ccc(-c2cccc(-c3c(-c4c(C#N)cccc4C#N)c4cc(F)ccc4n3S(=O)(=O)c3ccc(C(F)F)cc3)c2)c(Cl)c1` next D (<100 nM)

Param item: `N#Cc1cccc(C#N)c1-c1c(-c2cccc(-c3c(F)cc(C(=O)O)cc3F)c2)n(S(=O)(=O)c2ccc(C(F)F)cc2)c2ccc(F)cc12` D (<100 nM)

And the next one, `N#Cc1cccc(C#N)c1-c1c(-c2cccc(-c3ccc(C(=O)NCC(=O)O)cc3Cl)c2)n(S(=O)(=O)c2ccc(C(F)F)cc2)c2ccc(F)cc12` ? D (<100 nM)
